# EXPERIMENTAL_TARGET: T1, recombinant human Hsc70 (Genbank Accession No. P11142.1) (human, UniProt P11142 1-646, limits assumed)
# T1 construct: also called rhHsc70; rh-Hsc70
# T1 sequence (P11142 whole entry, one chain of several): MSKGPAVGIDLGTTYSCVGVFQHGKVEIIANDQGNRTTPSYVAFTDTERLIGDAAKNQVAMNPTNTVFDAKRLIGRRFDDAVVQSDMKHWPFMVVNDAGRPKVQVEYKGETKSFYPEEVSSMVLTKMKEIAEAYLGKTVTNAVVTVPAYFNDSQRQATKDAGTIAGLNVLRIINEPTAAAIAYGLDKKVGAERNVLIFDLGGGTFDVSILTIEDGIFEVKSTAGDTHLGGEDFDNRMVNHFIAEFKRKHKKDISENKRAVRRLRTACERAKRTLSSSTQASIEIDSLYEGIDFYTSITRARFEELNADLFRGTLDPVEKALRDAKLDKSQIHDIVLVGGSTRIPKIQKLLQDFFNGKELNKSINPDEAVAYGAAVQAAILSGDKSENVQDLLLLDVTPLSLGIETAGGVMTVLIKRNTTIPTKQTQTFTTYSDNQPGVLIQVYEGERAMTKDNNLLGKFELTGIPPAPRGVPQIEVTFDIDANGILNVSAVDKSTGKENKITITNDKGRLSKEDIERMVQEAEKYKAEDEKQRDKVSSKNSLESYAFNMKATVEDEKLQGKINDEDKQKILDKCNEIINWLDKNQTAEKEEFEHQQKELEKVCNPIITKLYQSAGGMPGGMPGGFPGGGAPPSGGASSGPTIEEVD
# EXPERIMENT_DESCRIPTION: size exclusion chromatography after incubating peptide with Hsc70 in PBS, 37 C, 1 h, 4:1 molar excess peptide:Hsc70
Square brackets hold non-standard residues; d marks the D form. Ends that are not written are not given here. pS = N[C@@H](COP(=O)(O)O)C(=O)O
Could you please report measured Percentage of Hsc70 loaded with peptide for the items listed next?
Provide the measurement as a number trailed by its unit.

Find the recorded Percentage of Hsc70 loaded with peptide belonging to NLLRLTGFFRKGLLG[pS]PVRA and report it.
41%

Find the recorded Percentage of Hsc70 loaded with peptide belonging to GLLG[pS]PVRAFFRKNLLRLTG and report it.
74%

Find the recorded Percentage of Hsc70 loaded with peptide belonging to RVA[pS]PTSGVFFRKNLLRLTG and report it.
75%

Find the recorded Percentage of Hsc70 loaded with peptide belonging to NLLRLTGFFRKRVA[pS]PTSGV and report it.
34%
